# Test system: BT-549 breast
# ASSAY_PROTOCOL: NCI-60 one-dose screen, 48 h (100 = growth as untreated, 0 = no growth, -100 = all killed)
# CONDITION_CONTEXT: 10 µM unless noted
# Procedure: Growth inhibition of the BT-549 human tumor cell line is measured as a screen for anti-cancer activity. Cells are grown in 96 well plates and exposed to the test compound for 48 hours. Compounds are tested at a single concentration, which is 10^-5 M for most compounds. The reported endpoint is percent growth (GI% or GIPRCNT), where numbers from 0 - 100% represent growth inhibition, and numbers from -100% - 0 represent cell death. For example, a value of 40 represents 60% growth inhibition. […]
Compounds without any hit were thinned out: in the full panel of roughly 83,000, 20% have a hit.
Reported growth is given for each of the following compounds.
MEASURE_NAME: growth (%)

compound="CN1C(=O)NC(c2ccc3c(c2)OCO3)C=C1c1ccccc1 (stereo not given)" recorded_number=90
compound=CCCCCN1C=C/C(=C\C(=O)N(C)c2ccccc2Br)c2ccccc21 recorded_number=116
compound=c1ccc(-c2cn3c(ccc4ccccc43)n2)cc1 recorded_number=63.6
compound=Cc1cc2nc3c4ccc(Br)cc4n(CCN(C)C)c3nc2cc1C recorded_number=57.5
compound=N#C/C(=C\c1ccc(C(F)(F)F)cc1)c1cc2ccccc2[nH]1 recorded_number=94.1
compound=O=C(Nc1ccc(NC(=O)c2cc(=O)[nH]c3ccccc23)cc1)Nc1cccc(Cl)c1 recorded_number=79
compound=O=C1Nc2cc(Cl)ccc2/C1=C\c1c(-c2ccc(F)cc2)nc2ccccn12 recorded_number=21.6
compound=COc1cc2c(=O)n(CCN(C)C)c3c4cc5c(cc4ccc3c2cc1OC)OCO5 recorded_number=1.42
compound="CC1(C)CC(O)CCCCCCOc2c(CN)cccc2NC(=O)c2nc(cnc2N)-c2ccc(cc2)S1(=O)=O (stereo not given)" recorded_number=28.2
compound=O=S(=O)(NCCCNc1nccc(-c2c(-c3cccc(F)c3)nc3sccn23)n1)c1cccc(F)c1 recorded_number=33.3

Provenance of the data: PubChem BioAssay (NCI)
